Assay: inhibition of 3D7 malaria parasite growth – strain 3D7 (AID 2306);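 also: 0% = DMSO wells and 100% = chloroquine plus artemisinin control wells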
Conditions: P. falciparum 3D7 erythrocytic growth, LDH absorbance, 72 h; at 2 µM; stronger effect = higher value
Quantity kind: growth inhibition (%)
Answers are plain numbers, in %.

Before answering, review these 9 worked examples.
O=C(NCCCN1CCCCC1)c1cccc(Nc2nccc(Nc3ccc(Oc4ccccc4)cc3)n2)c1
96
CN(C)c1ccc(NC(=O)Nc2ccnc3ccccc23)cc1Br
98
CS(=O)(=O)Cc1ccc(Nc2nccc(-c3c(-c4cccc(NC(=O)c5c(F)cccc5F)c4)nn4ncccc34)n2)cc1
97
Cc1cc(NC2CCCC2)nc(Nc2ccccc2F)n1
97
CCCCc1nc2nc(N)nc(N)c2cc1CCC
97
COc1cc(Cc2cnc3nc(N)nc(N)c3c2C)cc(OC)c1OC
95
Nc1nc(N)c2c(ccc3c2ccn3CCCC(F)(F)F)n1
97
NC(=O)c1ccc(NCC(=O)Nc2cccc(-c3cccc(-c4nc5ccc(F)cc5[nH]4)c3)c2)cc1
97
COc1cccc(-n2ncc3c(N/N=C/c4ccc(CN(C)CCN(C)C)cc4)ncnc32)c1
100

**Q:** Input CC(C)(CNCc1ccc(C(F)(F)F)cc1)c1nc(-c2ccc(Cl)c(O)c2)c(-c2ccnc(N)n2)[nH]1 , output reported growth inhibition.
**A:** 101

* * *

Kindly state normalised cell number for each of the entries shown.
Assay: differential killing of epithelial or mesenchymal cells, primary screen, imaging, PC-3E GFP, TEM4-18 mCherry, co-culture (AID 1345086);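 also: cells exposed to compound for 72 h before imaging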
Conditions: imaging cell counts, measured here: epithelial PC-3E GFP cell survival, at 1 µM
Give bare numbers.

Please review the entries below; each comes with its answer.
O=C1C=CC2(Oc3cccc4cccc(c34)O2)[C@H]2[C@H]1[C@@H](O)CC[C@H]2O
0.95
C=C1CC2C3C=C(C)C4=CC(=O)CC[C@]4(C)C3CC[C@]2(C)[C@@]1(OC(C)=O)C(C)=O (stereo not given in full)
0.99
CC(C)=CCC/C(C)=C/CC/C(C)=C/CC/C(C)=C/CC/C(C)=C/CC/C(C)=C/CC/C(C)=C/CC/C(C)=C/CC/C(C)=C/CO
0.97

Hello, I would appreciate it if you could give normalised cell number for each entry below.
1. C=C1C/C=C(\C)CC[C@@H]2[C@@H]1CC2(C)C
2. CC1(C)C2CCC1(C)C(O)C2 (stereo not given)
3. CN1C2CCC1CC(OC(=O)c1c[nH]c3ccccc13)C2 (stereo not given)
4. CCC(=O)OCC(=O)[C@@]1(OC(=O)CC)[C@H](C)CC2C3C([C@@H](O)C[C@@]21C)[C@@]1(C)C=CC(=O)C=C1C[C@H]3Cl (stereo not given in full)
5. CC(=C\C(=O)O)/C=C(\C)C[C@H](C)CCCC[C@H]1OC(=O)[C@@H]1CO
6. c1ccc(OCC2CCNC2)cc1 (stereo not given)
7. C=CCCCCCCCCCCCc1ccco1

**A:**
0.98
0.75
0.93
0.98
0.95
1.17
0.9

Below is a list of compounds. For each, state its recorded normalised cell number.
1. CCCCCCCCCCCCCCCC(=O)OCC(O)CO (stereo not given)
2. CC(C)(S)C(N)C(=O)O (stereo not given)
3. CC(=O)[C@@]1(O)CCC2C3C[C@H](C)C4=CC(=O)C=CC4(C)[C@@]3(F)[C@@H](O)C[C@@]21C (stereo not given in full)

**A:**
1: 1.14; 2: 1; 3: 1.18

Please go through the list and note normalised cell number for each compound.
1. CC(NCCc1ccc(O)cc1)C(O)c1ccc(O)cc1 (stereo not given)
2. CCCCC(=O)O[C@]1(C(=O)CO)[C@@H](C)CC2C3CCC4=CC(=O)C=C[C@]4(C)[C@@]3(F)C(O)C[C@@]21C (stereo not given in full)
3. C#C[C@H](O)COc1ccc(C(=O)O)cc1
4. COC1=CC(=O)C(O)=C/C1=C\C=C\c1ccccc1

**A:**
[0.9, 0.8, 0.57, 0.95]

# map each compound to its normalised cell number
1. CO[C@H]1C[C@H](O[C@H]2[C@H](C)[C@@H](OC3O[C@H](C)C[C@H](N(C)C)[C@H]3O)[C@@H](C)C[C@]3(CO3)C(=O)[C@H](C)[C@@H](O)[C@@H](C)[C@@H](C)OC(=O)[C@@H]2C)O[C@@H](C)[C@@H]1O (stereo not given in full)
2. Nc1ccc(S(=O)(=O)[O-])cc1.Nc1ccc(S(=O)(=O)[O-])cc1.[Zn+2]
3. C[C@H]1CC[C@@H](C(C)(C)O)CC2=C1CC[C@@H]2C

**A:**
[0.84, 1.26, 0.71]
